target: FGFR3 (human); assay: radiometric filter-binding kinase assay, Kinase HotSpot; settings: compound 0.5 µM; ATP 10 µM
measured-quantity: residual activity
Number first, unit second: that is the form wanted.

What value of measured residual activity is listed for O=C1NC(=O)c2c1c1c3ccccc3[nH]c1c1[nH]c3cc(Br)ccc3c21 ?
86.2%

What value of measured residual activity is listed for COc1cc2c(cc1OC)-c1[nH]nc(Nc3cccc(F)c3)c1C2 ?
99.6%

What value of measured residual activity is listed for COc1cc2ncnc(Nc3ccc(O)c(Br)c3)c2cc1OC ?
98.8%

###

molecular target: UniProt P07332; assay: radiometric filter-binding kinase assay, Kinase HotSpot; conditions: compound 0.5 µM; ATP 10 µM
Sequence (P07332 whole entry, looked up): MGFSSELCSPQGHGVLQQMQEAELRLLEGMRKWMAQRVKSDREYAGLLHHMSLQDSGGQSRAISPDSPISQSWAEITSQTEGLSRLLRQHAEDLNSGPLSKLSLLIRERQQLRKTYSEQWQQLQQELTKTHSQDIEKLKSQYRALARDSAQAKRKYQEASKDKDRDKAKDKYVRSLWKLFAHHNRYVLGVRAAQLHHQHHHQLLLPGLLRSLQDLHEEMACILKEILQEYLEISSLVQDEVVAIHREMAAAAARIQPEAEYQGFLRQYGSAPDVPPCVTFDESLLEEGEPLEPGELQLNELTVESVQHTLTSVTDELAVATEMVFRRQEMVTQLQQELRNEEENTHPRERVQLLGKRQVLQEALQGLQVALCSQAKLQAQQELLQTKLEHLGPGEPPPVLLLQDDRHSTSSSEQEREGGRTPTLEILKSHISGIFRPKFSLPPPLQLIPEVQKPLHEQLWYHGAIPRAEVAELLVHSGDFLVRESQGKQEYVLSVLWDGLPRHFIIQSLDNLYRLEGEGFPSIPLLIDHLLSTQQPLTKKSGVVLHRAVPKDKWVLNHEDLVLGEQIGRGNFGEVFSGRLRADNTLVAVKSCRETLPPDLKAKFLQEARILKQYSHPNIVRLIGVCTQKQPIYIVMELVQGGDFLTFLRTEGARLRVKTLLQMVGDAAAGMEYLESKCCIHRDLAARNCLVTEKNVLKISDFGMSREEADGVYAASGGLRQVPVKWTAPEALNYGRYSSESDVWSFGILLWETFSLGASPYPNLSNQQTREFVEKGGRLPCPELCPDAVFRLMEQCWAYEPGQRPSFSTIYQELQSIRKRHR
measured-quantity: residual activity (%)
Numbers only here, please. The scale is %.

What value of measured residual activity is listed for Cc1cc(Nc2nc(-c3ccccc3)nc3ccccc23)n[nH]1 ?
94.7

What value of measured residual activity is listed for Nc1ncnc2c1cnn2-c1ccccc1 ?
99.7

What value of measured residual activity is listed for N#CCCc1ccc2c(c1)-c1[nH]c3ccc([N+](=O)[O-])cc3c1CC(=O)N2 ?
37.9

What value of measured residual activity is listed for N/C(=N\N=C/c1ccc(-c2cccc([N+](=O)[O-])c2)o1)N[N+](=O)[O-] ?
101

What value of measured residual activity is listed for O=C1NC(=O)c2c1c1c3ccccc3[nH]c1c1[nH]c3cc(Br)ccc3c21 ?
88.1

What value of measured residual activity is listed for COc1cc2c(cc1OC)-c1[nH]nc(Nc3cccc(F)c3)c1C2 ?
95.6

What value of measured residual activity is listed for CCc1nc(-c2ccc(OC)cc2)[nH]c1-c1ccncc1 ?
100

What value of measured residual activity is listed for Cn1cc(/C=C2\C(=O)Nc3ccc(S(N)(=O)=O)cc32)c2ccccc21 ?
57.4

What value of measured residual activity is listed for O=c1c2ccccc2[nH]c(=S)n1CCN1CCC(=C(c2ccc(F)cc2)c2ccc(F)cc2)CC1 ?
94.9

What value of measured residual activity is listed for O=C(c1ccccc1)c1ccc(N2CCOCC2)cc1O ?
95.2

What value of measured residual activity is listed for COc1cccc(-c2cc(=O)c3ccccc3o2)c1N ?
94.3

What value of measured residual activity is listed for O=c1cc(N2CCOCC2)oc2c(-c3ccccc3)cccc12 ?
96.6

What value of measured residual activity is listed for O=c1c(-c2ccc(F)cc2)c(-c2ccncc2)[nH]n1-c1ccc(Cl)cc1 ?
92.3

What value of measured residual activity is listed for N#C/C(=C1/Nc2ccccc2S1)c1ccnc(NCCc2cccnc2)n1 ?
92.8

What value of measured residual activity is listed for O=c1[nH]c2ccccc2n1C1CCN(Cc2ccc(-c3nc4cc5[nH]cnc5cc4nc3-c3ccccc3)cc2)CC1 ?
101
